Listed below: Hepatotoxicity (moderate) values for each entry.
settings: human, serum;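 note: human clinical chemistry: moderate when serum ALT or AST reaches 6× upper normal limit or alkaline phosphatase 1.7×, value counts indexed literature references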
reported-metric: Hepatotoxicity (moderate)

{"compound": "NS(=O)(=O)c1cc2c(cc1Cl)NC(CC1CCCC1)NS2(=O)=O (centres undefined) [CYCLOPENTHIAZIDE]", "reported-metric": "Hepatotoxicity (moderate)", "val": 1}
{"compound": "O=C(CCCCC(=O)Nc1c(I)cc(I)c(C(=O)O)c1I)Nc1c(I)cc(I)c(C(=O)O)c1I [IODIPAMIDE]", "reported-metric": "Hepatotoxicity (moderate)", "val": 2}
{"compound": "CC(C(=O)O)c1ccc(C(=O)c2ccccc2)s1 (centres undefined)", "reported-metric": "Hepatotoxicity (moderate)", "val": 1}
{"compound": "CNCCCN1c2ccccc2CCc2ccccc21", "reported-metric": "Hepatotoxicity (moderate)", "val": 4}
{"compound": "COc1cc(C(=O)NS(=O)(=O)c2ccccc2C)ccc1Cc1cn(C)c2ccc(NC(=O)OC3CCCC3)cc12", "reported-metric": "Hepatotoxicity (moderate)", "val": 4}
{"compound": "CC[C@@]1(O)C(=O)OCc2c1cc1n(c2=O)Cc2cc3c(CN(C)C)c(O)ccc3nc2-1", "reported-metric": "Hepatotoxicity (moderate)", "val": 1}
{"compound": "CCN(CC)CC(=O)Oc1ccc(NC(C)=O)cc1", "reported-metric": "Hepatotoxicity (moderate)", "val": 1}
{"compound": "C=CCC1(C(C)C#CCC)C(=O)N=C(O)N(C)C1=O (centres undefined)", "reported-metric": "Hepatotoxicity (moderate)", "val": 1}
{"compound": "Nc1nc2c(ncn2COCCO)c(=O)[nH]1", "reported-metric": "Hepatotoxicity (moderate)", "val": 18}

Data provenance: ChEMBL document CHEMBL3137667
